Test system: DU-145 prostate
Experiment: NCI-60 one-dose screen, 48 h
Details: 10 µM
The panel holds about 83,000 compounds, 20% with a hit somewhere; the sample as a whole holds those more often. Activity calls are given as the source filed them. How the source made its calls: active means growth percent below 10; inactive means the rest.
// allowed return values: 1 for active, 0 for inactive

**Q:** Please indicate how the test categorized ClCc1ccc2ccccc2n1 .
**A:** 0

**Q:** Please indicate how the test categorized COC(C(=O)C(O)C(C)O)C1Cc2cc3cc(OC4CC(OC(C)=O)C(OC5CC(O)C(OC)C(C)O5)C(C)O4)cc(O)c3c(O)c2C(=O)C1OC1CC(OC2CC(OC3CC(C)(O)C(OC(=O)C(C)C)C(C)O3)C(O)C(C)O2)C(O)C(C)O1 (centres undefined) .
**A:** 1

**Q:** Please indicate how the test categorized O=[N+]([O-])c1ccc(Br)c([N+](=O)[O-])c1 .
**A:** 0

**Q:** Please indicate how the test categorized O=C(CBr)Nc1ccc(Cl)cc1 .
**A:** 0

**Q:** Please indicate how the test categorized CS(=N)(=O)CCC(N)C(=O)O (centres undefined) .
**A:** 0

**Q:** Please indicate how the test categorized CN(CCCl)c1ccc(/C=C/C2=[N+](C)c3ccccc3C2(C)C)cc1 .
**A:** 0

**Q:** Please indicate how the test categorized COc1ccccc1[As]=[As]c1ccccc1OC (centres undefined) .
**A:** 1

**Q:** Please indicate how the test categorized CCCCCCCC[N+]12CN3CN(CN(C3)C1)C2 .
**A:** 0

**Q:** Please indicate how the test categorized O=C1C(=O)c2ccccc2-c2ccccc21 .
**A:** 1

**Q:** Please indicate how the test categorized C=C1C(=O)O[C@@H]2C[C@@H](C)[C@@H]3C=CC(=O)[C@@]3(C)[C@@H](O)[C@H]12 .
**A:** 1

**Q:** Please indicate how the test categorized CC12OOC(c3ccccc31)c1c2ccc2ccccc12 (centres undefined) .
**A:** 1

**Q:** Please indicate how the test categorized CCOP(=O)(OCC)/C(C#N)=C/c1ccc(Br)cc1 .
**A:** 0

**Q:** Please indicate how the test categorized Cc1cc(C(C)(C)c2ccc(O)c(C)c2)ccc1O .
**A:** 0

**Q:** Please indicate how the test categorized COc1cc(/C=C/[N+](=O)[O-])cc(OC)c1OC .
**A:** 1

**Q:** Please indicate how the test categorized [Cl][Hg][c]1ccc(Cl)s1 .
**A:** 0

**Q:** Please indicate how the test categorized C[CH2][Hg][S]c1ccccc1C(=O)O .
**A:** 1

**Q:** Please indicate how the test categorized CC/C(=C/c1ccc(OC)cc1OC)[N+](=O)[O-] .
**A:** 0

**Q:** Please indicate how the test categorized O=C(CCl)Nc1ccc(Cl)cc1 .
**A:** 0

**Q:** Please indicate how the test categorized O=C(O)c1cc(Cc2ccc(O)c(C(=O)O)c2)ccc1O (tested in a mixture with another compound) .
**A:** 0

**Q:** Please indicate how the test categorized N#CCc1ccccc1 .
**A:** 0

**Q:** Please indicate how the test categorized S=C=NCCc1ccccc1 .
**A:** 0

**Q:** Please indicate how the test categorized [Cl][Hg][c]1ccc2ccccc2c1 .
**A:** 1

**Q:** Please indicate how the test categorized CC(=O)[O][Hg][c]1c(C)c(C)cc(C)c1C .
**A:** 1

**Q:** Please indicate how the test categorized NC(=O)c1cc([N+](=O)[O-])c(Cl)c([N+](=O)[O-])c1 .
**A:** 0

---

Tested on: KM12 colon
Assay: NCI-60 one-dose screen, 48 h (100 = growth as untreated, 0 = no growth, -100 = all killed)
Conditions: 10 µM
This is part of a sample that, as a whole, favours compounds with a hit. Of some 83,000 tested, about 20% had one in any assay.
Kindly supply the reported growth values for the records listed here.
Respond numerically; units are % and should not be typed.

**Q:** Given the entry O=S(=O)(F)c1ccc(Cl)cc1 , what growth was observed with KM12 colon?
**A:** 104

**Q:** Given the entry O=C1C=Cc2ccccc2C1=O , what growth was observed with KM12 colon?
**A:** 110

**Q:** Given the entry COc1ccc(/C=C(\C)[N+](=O)[O-])cc1OC , what growth was observed with KM12 colon?
**A:** 54.6

**Q:** Given the entry CC(=O)Nc1c2sscc-2n(C)c1=O , what growth was observed with KM12 colon?
**A:** -100

**Q:** Given the entry CC/C(=C/c1ccc(OC)cc1OC)[N+](=O)[O-] , what growth was observed with KM12 colon?
**A:** 25.5

**Q:** Given the entry CCCCCCCC[N+]12CN3CN(CN(C3)C1)C2 , what growth was observed with KM12 colon?
**A:** 98.4

**Q:** Given the entry COc1cc2c(c(OC)c1OC)-c1ccc(O)c(=O)cc1[C@@H](NC(C)=O)CC2 , what growth was observed with KM12 colon?
**A:** 57.4

---

Test system: HCT-116 colon
Assay: NCI-60 one-dose screen, 48 h
Conditions: 10 µM
The panel holds about 83,000 compounds, 20% with a hit somewhere; the sample as a whole holds those more often. Activity calls are given as the source filed them. The calls were made as follows: active = growth percent below 10; inactive = the rest.
// allowed return values: active, inactive

**Q:** Please indicate how the test categorized O=C1CCC(=O)N1SC(Cl)(Cl)Cl .
**A:** inactive

**Q:** Please indicate how the test categorized COc1ccccc1/C=C/[N+](=O)[O-] .
**A:** inactive

**Q:** Please indicate how the test categorized COS(=O)(=O)c1ccccc1 .
**A:** inactive

**Q:** Please indicate how the test categorized ClCc1ccc2ccccc2n1 .
**A:** inactive

**Q:** Please indicate how the test categorized CC[C@@H](C)[C@@H]1NC(=O)C(NC(=O)C(CC(C)C)N(C)C(=O)C2CCCN2C(=O)C(C)O)C(C)OC(=O)C(Cc2ccc(OC)cc2)N(C)C(=O)C2CCCN2C(=O)C(CC(C)C)NC(=O)C(C)C(=O)C(C(C)C)OC(=O)C[C@H]1O (stereo not given in full) .
**A:** active

---

System: RXF 393 renal
Experiment: NCI-60 one-dose screen, 48 h
Conditions: 10 µM
This is part of a sample that, as a whole, favours compounds with a hit. Of some 83,000 tested, about 20% had one in any assay. Activity calls are given as the source filed them. How the source made its calls: active means growth percent below 10; inactive means the rest.
// allowed return values: y for active, n for inactive

**Q:** Please indicate how the test categorized COc1cc([N+](=O)[O-])c2ncccc2c1[N+](=O)[O-] .
**A:** n

**Q:** Please indicate how the test categorized COc1cc2c(cc1OC)C13CCN4CC5=CCOC6CC(=O)N2C1C6C5CC43 (configuration not stated) .
**A:** n

**Q:** Please indicate how the test categorized C[CH2][Hg][S]c1ccccc1C(=O)O .
**A:** y

**Q:** Please indicate how the test categorized CN(C)CC1(N)C(=O)NC(=O)NC1=O .
**A:** n

**Q:** Please indicate how the test categorized Cc1cc(C(C)(C)c2ccc(O)c(C)c2)ccc1O .
**A:** n

**Q:** Please indicate how the test categorized O=C(CCl)Nc1ccc(Cl)cc1 .
**A:** n

**Q:** Please indicate how the test categorized ClCc1ccc2ccccc2n1 .
**A:** n

---

Test system: HCT-116 colon
Experiment: NCI-60 one-dose screen, 48 h
Conditions: 10 µM
This is part of a sample that, as a whole, favours compounds with a hit. Of some 83,000 tested, about 20% had one in any assay. Calls of active or inactive are those of the source. The calls were made as follows: active = growth percent below 10; inactive = the rest.
// allowed return values: active, inactive

**Q:** Please indicate how the test categorized S=C=NCCc1ccccc1 .
**A:** inactive

**Q:** Please indicate how the test categorized CC/C(=C/c1ccc(OC)cc1OC)[N+](=O)[O-] .
**A:** active

**Q:** Please indicate how the test categorized COc1ccc2c(ccc3oc([N+](=O)[O-])cc32)c1 .
**A:** active

**Q:** Please indicate how the test categorized O=[N+]([O-])c1cc[n+]([O-])c2ccccc12 .
**A:** active

**Q:** Please indicate how the test categorized CC12OOC(c3ccccc31)c1c2ccc2ccccc12 (stereo unspecified) .
**A:** active

**Q:** Please indicate how the test categorized C#CC1(O)CCC(C(C)(C)C)CC1 (stereo unspecified) .
**A:** inactive

**Q:** Please indicate how the test categorized Oc1c(Cl)cc(Cl)c2ccccc12.[Cu+2] .
**A:** inactive

**Q:** Please indicate how the test categorized C[C@@H]1C[C@@H]([C@H](O)CC2CC(=O)NC(=O)C2)C(=O)[C@@H](C)C1 .
**A:** active

**Q:** Please indicate how the test categorized Cc1cc(C)c(C[N+](C)(C)C)c(C)c1C .
**A:** active

**Q:** Please indicate how the test categorized COc1cc(/C=C/[N+](=O)[O-])cc(Br)c1OC .
**A:** active

**Q:** Please indicate how the test categorized CC(=O)[O][Hg][c]1c(C)c(C)cc(C)c1C .
**A:** active

**Q:** Please indicate how the test categorized CCOP(=O)(OCC)C(O)c1ccccc1Cl (stereo unspecified) .
**A:** inactive

**Q:** Please indicate how the test categorized CC(C)(C)OOC(=O)/C=C\C(=O)OOC(C)(C)C .
**A:** inactive

**Q:** Please indicate how the test categorized CN(C)CC1(N)C(=O)NC(=O)NC1=O .
**A:** inactive

**Q:** Please indicate how the test categorized CCCCCCCC[N+]12CN3CN(CN(C3)C1)C2 .
**A:** inactive

**Q:** Please indicate how the test categorized O=C(CBr)Nc1ccc(Cl)cc1 .
**A:** inactive

**Q:** Please indicate how the test categorized O=S(=O)(F)c1ccc(Cl)cc1 .
**A:** inactive

**Q:** Please indicate how the test categorized CCOP(=O)(OCC)/C(C#N)=C/c1ccc(Br)cc1 .
**A:** inactive

**Q:** Please indicate how the test categorized Cc1ccc(NC(=O)CBr)cc1 .
**A:** inactive

**Q:** Please indicate how the test categorized COc1cc(/C=C/[N+](=O)[O-])cc(OC)c1OC .
**A:** active

**Q:** Please indicate how the test categorized CS(=N)(=O)CCC(N)C(=O)O (stereo unspecified) .
**A:** inactive

**Q:** Please indicate how the test categorized [O-][n+]1ccccc1S .
**A:** active

**Q:** Please indicate how the test categorized O=C1C=Cc2ccccc2C1=O .
**A:** inactive

**Q:** Please indicate how the test categorized CC(C)c1cc([N+](=O)[O-])cc([N+](=O)[O-])c1O .
**A:** inactive

**Q:** Please indicate how the test categorized COC(=O)C1C(O)C(C)C(O)C(C)/C=C\C=C(C)C(=O)Nc2c(C)c(OC(C)=O)c3c(c2O)C(=O)C(C)=C2OCOC(=C23)C(C)=CC(C)(O)C(O)C(C)C1O (stereo unspecified) .
**A:** inactive

**Q:** Please indicate how the test categorized O=[N+]([O-])/C=C/c1ccc(Cl)cc1[N+](=O)[O-] .
**A:** active
